Where these numbers come from: patent US20090036441A1

target: Biot-Hif-1α^786-826/GST-p300^323/423 (Homo sapiens); construct: the p300 region ranging from amino acids 323 to 423; fragment corresponding to C-terminal 786-826 amino acids; assay: Primary biochemical assay (DELFIA fluorescence) for inhibition of the Hif-1α/p300 interaction; conditions: 10 concentrations from 90 μM to 0.178 μM, 1 h at 25° C.
Sequence (Q09472 323-423): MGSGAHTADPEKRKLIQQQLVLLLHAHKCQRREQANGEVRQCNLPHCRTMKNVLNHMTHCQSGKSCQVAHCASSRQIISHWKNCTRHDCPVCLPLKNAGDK
For each record, check the reported IC50: if it is below 10 µM write Yes, else write No.

Past entries and their recorded results:
Data request: Is IC50 of CCOC(=O)c1c2c(n(CC(=O)OC(C)(C)C)c1C)C(=O)C(=O)c1ccc(Br)cc1-2 [Example 7] strictly below 10 µM?
Data returned: No

Data request: Is IC50 of CCOC(=O)c1c2c(n(C)c1CN(C)C)C(=O)C(=O)c1ccc(Br)cc1-2 [Example 5] strictly below 10 µM?
Data returned: Yes

Data request: Is IC50 of CCOC(=O)c1c2c(n(C)c1CO)C(=O)C(=O)c1ccc(Br)cc1-2 [12(a)] strictly below 10 µM?
Data returned: No

Data request: Is IC50 of CCOC(=O)c1c(C)[nH]c2c1-c1cc(Br)ccc1C(=O)C2=O [Example 1] strictly below 10 µM?
Data returned: No

Data request: Is IC50 of CCOC(=O)c1c2c(n(C)c1CN1CCOCC1)C(=O)C(=O)c1ccc(Br)cc1-2 [Example 4] strictly below 10 µM?
Data returned: No

Data request: Is IC50 of CCOC(=O)c1c2c(n(C)c1CN(CC)CC)C(=O)C(=O)c1ccc(Br)cc1-2 [12(b)] strictly below 10 µM?
Data returned: No

Next:
Data request: Is IC50 of CCOC(=O)c1c2c(n(C)c1CNC(C)C)C(=O)C(=O)c1ccc(Br)cc1-2 [Example 6] strictly below 10 µM?
Data returned: Yes

Data request: Is IC50 of CCOC(=O)c1c2c(n(Cc3ccccc3)c1C)C(=O)C(=O)c1ccc(Br)cc1-2 [12(c)] strictly below 10 µM?
Data returned: Yes

Data request: Is IC50 of CCOC(=O)c1c2c(n(CC(N)=O)c1C)C(=O)C(=O)c1ccc(Br)cc1-2 [Example 9] strictly below 10 µM?
Data returned: Yes

Data request: Is IC50 of CCOC(=O)c1c2c(n(CC(=O)O)c1C)C(=O)C(=O)c1ccc(Br)cc1-2 [Example 8] strictly below 10 µM?
Data returned: No

Data request: Is IC50 of CCOC(=O)c1c2c(n(C)c1C)C(=O)C(=O)c1ccc(Br)cc1-2 [Example 3] strictly below 10 µM?
Data returned: Yes
